// provenance: ChEMBL document CHEMBL1772969

test system: Plasmodium falciparum; experiment: Antimalarial activity against chloroquine/pyrimethamine-resistant Plasmodium falciparum W2 after 48 hrs by [3H]hypoxanthine incorporation assay; format: functional, organism-based
Property Label: IC50 (nM)
Supply the numeric figure in nM, leaving out any unit text.

[[record]]
chemical_structure = "CC[C@H]1OC(=O)[C@H](C)[C@@H](O[C@H]2C[C@@](C)(OC)[C@@H](O)[C@H](C)O2)[C@H](C)[C@@H](O[C@@H]2O[C@H](C)C[C@H](N(C)C)[C@H]2O)[C@](C)(O)C[C@@H](C)CN(CCN(CCC#N)C(=S)NCCc2ccccc2)[C@H](C)[C@@H](O)[C@]1(C)O"
unit_symbol = "nM"
value_measured = 64

[[record]]
chemical_structure = "CC[C@H]1OC(=O)[C@H](C)[C@@H](O[C@H]2C[C@@](C)(OC)[C@@H](O)[C@H](C)O2)[C@H](C)[C@@H](O[C@@H]2O[C@H](C)C[C@H](N(C)C)[C@H]2O)[C@](C)(O)C[C@@H](C)CN(CCCNC(=S)Nc2cccc3ccccc23)[C@H](C)[C@@H](O)[C@]1(C)O"
unit_symbol = "nM"
value_measured = 155

[[record]]
chemical_structure = "CC[C@H]1OC(=O)[C@H](C)[C@@H](O[C@H]2C[C@@](C)(OC)[C@@H](O)[C@H](C)O2)[C@H](C)[C@@H](O[C@@H]2O[C@H](C)C[C@H](N(C)C)[C@H]2O)[C@](C)(O)C[C@@H](C)CN(CCN(CCC#N)C(=O)Nc2ccc3ccccc3c2)[C@H](C)[C@@H](O)[C@]1(C)O"
unit_symbol = "nM"
value_measured = 125

[[record]]
chemical_structure = "CC[C@H]1OC(=O)[C@H](C)[C@@H](O[C@H]2C[C@@](C)(OC)[C@@H](O)[C@H](C)O2)[C@H](C)[C@@H](O[C@@H]2O[C@H](C)C[C@H](N(C)C)[C@H]2O)[C@](C)(O)C[C@@H](C)CN(CCCN(CCC#N)C(=S)NCCCc2ccccc2)[C@H](C)[C@@H](O)[C@]1(C)O"
unit_symbol = "nM"
value_measured = 88


Memo: CC[C@H]1OC(=O)[C@H](C)[C@@H](O[C@H]2C[C@@](C)(OC)[C@@H](O)[C@H](C)O2)[C@H](C)[C@@H](O[C@@H]2O[C@H](C)C[C@H](N(C)C)[C@H]2O)[C@](C)(O)C[C@@H](C)CN(CCCNC(=O)Nc2ccc3ccccc3c2)[C@H](C)[C@@H](O)[C@]1(C)O , reported IC50: 127
